System: TK-10 renal
Test: NCI tumour cell line growth inhibition, 48 h
Exercise: state measured TGI for each of the compounds provided.
Numbers only, in µM.

// known answers, use as guide
C[C@]12CC[C@@H]3c4cc(OCC(F)(F)F)c(O)cc4CC[C@H]3[C@@H]1CC[C@@H]2O; 40.4
O=C1c2c(c3c4ccccc4[nH]c3c3ccc4ccccc4c23)C(=O)N1CCN1CCNCC1; 3.24
CC(C)C[C@H](NC(=O)CNC(=O)c1cc(Cl)ccc1Cl)B1OC(=O)CC(CC(=O)O)(C(=O)O)O1 (some centres undefined); 0.373

Please state, for each entry, its recorded TGI.
1. O=C(NC1=C(Cl)C(=O)c2ccccc2C1=O)c1ccc(F)cc1
2. O=C(NN1C(=O)CSC12CCCCC2)c1[nH]c2ccc(Br)cc2c1-c1ccccc1

OUTPUT:
[14.6, 33.2]

---

Tested on: A498 renal
Assay: NCI tumour cell line growth inhibition, 48 h; in the data active means GI50 below about 0.43 µM; inactive means the rest
Entry note: the call must match one of active, inactive

Example cases with answers are listed next.
CCc1ccc2c(c1)N(CCO)C1=C(C(=O)OC1)C2c1cccc(Br)c1 (configuration not stated); active
O=C1OCC2=C1C(c1ccc(Cl)c(Cl)c1)c1cc3c(cc1N2CCO)OCCO3 (configuration not stated); active
CCCN(CCS(C)(=O)=O)Cc1ccc(-c2ccc3ncnc(Nc4ccc(OCc5cccc(F)c5)c(Cl)c4)c3c2)o1; inactive
CCOc1ccccc1C(=O)N1CCN(c2cc(Cl)cc(Cl)c2)CC1; active
CO/N=C(/C)c1ccc(NC(=O)CSc2nnc(-c3ccncc3)n2-c2ccccc2)cc1; inactive

INPUT: Record lookup: outcome of this test for COc1cc2c3c(n(C)c(=O)c2cc1OC)-c1cc2c(cc1/C3=C\CCCCN1C(=O)c3ccccc3C1=O)OCO2 ?
OUTPUT: inactive

INPUT: Record lookup: outcome of this test for O=S(=O)(c1ccc(Cl)cc1)C(Cl)(Cl)Cl ?
OUTPUT: inactive

---

Test system: DMS 114 small cell lung
Assay: NCI tumour cell line growth inhibition, 48 h
Readout: TGI

COc1ccc2c(c1)C(=O)C1CC(=O)CCC21 (stereo unspecified); > 100 µM

Please state, for each entry, its recorded TGI.
1. O=C1OC2(CC1C1(O)C3CC4CC(C3)CC1C4)C1CC3CC(C1)CC2C3 (stereo unspecified)
2. O=C1OC(Cc2ccccc2)(N2CCCC2=O)C1c1ccccc1 (stereo unspecified)
3. CCCP1(=O)C=C(C)C(=C(Cl)Cl)C(C)=C1 (stereo unspecified)
4. N#C[C@H](OC1OC(COC2OC(CO)C(O)C(O)C2O)C(O)C(O)C1O)c1ccccc1 (stereo partly specified)
5. COc1cccc(OC)c1C(=O)OCc1ccccc1
6. Cc1ccc(C2OC(COCc3ccc(Cl)cc3)C(OCc3ccc(Cl)cc3)C2O)cc1 (stereo unspecified)

OUTPUT:
1: > 100 µM; 2: 81 µM; 3: > 100 µM; 4: > 250 µM; 5: > 100 µM; 6: 22.2 µM

Please state, for each entry, its recorded TGI.
1. CC1(O)C=CC(=O)C=C1
2. CC(=O)NC(CCCNC(=O)N(CCCl)N=O)C(=O)NCc1ccccc1 (stereo unspecified)

OUTPUT:
["32.3 µM", "> 100 µM"]

Please state, for each entry, its recorded TGI.
1. Cc1ccc(-c2nnc(-c3nn(-c4ccccc4)c4nc5ccccc5nc34)o2)cc1
2. Cc1cccc(C)c1NC(=O)/C(=N/NC(N)=S)C(C)C(=O)c1ccc(Cl)cc1 (stereo unspecified)
3. C=CC1(NC(=O)c2ccccc2)CCC(C(C)(C)C)CC1 (stereo unspecified)
4. O=C(CSc1nnc(Cc2ccccc2)o1)Nc1ccccc1

OUTPUT:
1: 51.1 µM; 2: > 100 µM; 3: > 90.7 µM; 4: > 100 µM
